testDescription: Oral availability was tested for plasma levels at a dose of 40 mg/kg, after 6 hr of in fed fisher rats.
Type: ADME, organism-based
Set-up: dose 40 mg/kg
assayContext: Fischer, rat, read-out: Oral availability
readout: bioavailability (%)
Give the value in % but do not write % after it.

Query: # lookup: bioavailability of Cc1c(O)cccc1C(=O)N[C@@H](Cc1ccccc1)[C@H](O)CN1C[C@H]2CCCC[C@H]2C[C@H]1C(=O)NC(C)(C)C
Result: 44

---

systemName: UniProt Q72874
testDescription: Inhibitory activity HIV-1 protease enzyme
The label rule met is reserved for Ki strictly under 30 nM; rule not met covers values equal to or above it.

Query: Just wondering, is Ki of CC(C)(C)NC(=O)c1ccccc1C[C@@H](O)[C@H](CSc1ccc2ccccc2c1)NC(=O)c1cccc(O)c1Cl below 30 nM?
Result: rule met

Next:
Query: Just wondering, is Ki of Cc1ccc(O)cc1C(=O)N[C@@H](CSc1ccc2ccccc2c1)[C@H](O)Cc1ccccc1C(=O)NC(C)(C)C below 30 nM?
Result: rule not met

Query: Okay, and CC(C)(C)NC(=O)c1ccccc1C[C@@H](O)[C@H](CSc1ccc2ccccc2c1)NC(=O)c1cccc2[nH]ccc12 ?
Result: rule not met

Query: Okay, and CC(C)(C)NC(=O)c1ccccc1C[C@@H](O)[C@H](CSc1ccc2ccccc2c1)NC(=O)c1ccnc2ccccc12 ?
Result: rule not met

Query: Okay, and CC(C)(C)NC(=O)c1ccccc1C[C@@H](O)[C@H](CSc1ccc2ccccc2c1)NC(=O)c1cccc2ncccc12 ?
Result: rule not met

Query: Okay, and Cc1ccc(N)cc1C(=O)N[C@@H](CSc1ccc2ccccc2c1)[C@H](O)Cc1ccccc1C(=O)NC(C)(C)C ?
Result: rule met

Query: Okay, and Cc1c(O)cccc1C(=O)N[C@@H](Cc1ccccc1)[C@H](O)CN1C[C@H]2CCCC[C@H]2C[C@H]1C(=O)NC(C)(C)C ?
Result: rule met

Query: Okay, and CC(C)(C)NC(=O)c1ccccc1C[C@@H](O)[C@H](CSc1ccc2ccccc2c1)NC(=O)c1cccc2c1CCN2 ?
Result: rule not met

---

Test system: CCRF-CEM
testDescription: Inhibitory activity against CEM cells
Assay type: functional, cell-based
assayContext: Homo sapiens
log10 of IC50: recorded values
Scale: log10; quantity: IC50; unit before log: µg/mL

Worked examples follow.
Query: # lookup: log10 of IC50 of Cc1c(O)cccc1C(=O)N[C@@H](Cc1ccccc1)[C@H](O)CN1C[C@H]2CCCC[C@H]2C[C@H]1C(=O)NC(C)(C)C
Result: -2.00

Query: Okay, and CC(C)(C)NC(=O)c1ccccc1C[C@@H](O)[C@H](CSc1ccc2ccccc2c1)NC(=O)c1cccc2ncccc12 ?
Result: 0.76

Query: Okay, and Cc1c(N)cc(N)cc1C(=O)N[C@@H](CSc1ccc2ccccc2c1)[C@H](O)Cc1ccccc1C(=O)NC(C)(C)C ?
Result: -0.34

Query: Okay, and CC(C)(C)NC(=O)c1ccccc1C[C@@H](O)[C@H](CSc1ccc2ccccc2c1)NC(=O)c1ccnc2ccccc12 ?
Result: 0.75

Query: Okay, and CC(C)(C)NC(=O)c1ccccc1C[C@@H](O)[C@H](CSc1ccc2ccccc2c1)NC(=O)c1cccc2c1CCCN2 ?
Result: 0.28

Next:
Query: # lookup: log10 of IC50 of Cc1c(O)cccc1C(=O)N[C@@H](CSc1ccc2ccccc2c1)[C@H](O)Cc1ccccc1C(=O)NC(C)(C)C
Result: -0.01

Reference source for all entries: ChEMBL document CHEMBL1128867
